- study_system: BSA (Bos taurus, UniProt P02769)
- Construct: BSA (fraction V, essentially fatty acid free, low endotoxin) from Sigma; purchased Sigma
- Sequence (P02769 25-607): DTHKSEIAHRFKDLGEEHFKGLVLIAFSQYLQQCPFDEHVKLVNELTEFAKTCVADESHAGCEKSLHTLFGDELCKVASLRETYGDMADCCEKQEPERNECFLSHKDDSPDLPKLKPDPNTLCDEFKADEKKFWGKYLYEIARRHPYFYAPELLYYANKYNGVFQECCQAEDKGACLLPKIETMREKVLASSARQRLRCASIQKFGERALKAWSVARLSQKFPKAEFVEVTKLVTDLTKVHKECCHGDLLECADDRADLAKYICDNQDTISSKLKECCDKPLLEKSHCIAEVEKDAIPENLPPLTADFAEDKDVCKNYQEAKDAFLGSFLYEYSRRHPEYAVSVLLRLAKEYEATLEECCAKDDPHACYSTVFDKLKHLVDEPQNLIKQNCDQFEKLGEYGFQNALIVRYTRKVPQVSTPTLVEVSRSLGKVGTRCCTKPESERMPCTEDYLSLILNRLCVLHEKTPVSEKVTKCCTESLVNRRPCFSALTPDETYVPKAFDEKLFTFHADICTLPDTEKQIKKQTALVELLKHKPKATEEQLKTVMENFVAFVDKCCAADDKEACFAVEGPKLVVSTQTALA
- assay_comment: BSA-Glucose assay, glucose-mediated development of fluorescence of BSA
- Format: biochemical
- condition_parameters: 1 millimole/L inhibitor, 7 days at 37° C., fluorescence 330/410 nm
attribute_measured: Percent Inhibition in the BSA-Glucose Assay (%)

> print(dat)
                                   compound  result.value
1  CC(C)C[C@H](NC(=O)C(C)(C)Oc1ccc(NC(=O)Nc2cc(Cl)cc(Cl)c2)cc1)C(=O)O [LR95]            34
2  CC(C)(Oc1ccc(NC(=O)Nc2cc(Cl)cc(Cl)c2)cc1)C(=O)Nc1ccc(C(=O)O)cc1 [LR99]          30.9
3  CC(C)(Oc1ccc(NC(=O)Nc2cc(Cl)cc(Cl)c2)cc1)C(=O)NCCCC(=O)O [LR97]          26.2
4  COC(=O)CC[C@H](NC(=O)C(C)(C)Oc1ccc(NC(=O)Nc2cc(Cl)cc(Cl)c2)cc1)C(=O)O [LR96]            30
5  CC(C)(Oc1ccc(NC(=O)Nc2cc(Cl)cc(Cl)c2)cc1)C(=O)NC1(C(=O)O)CCCC1 [LR100]          31.9
6  CC(C)(Oc1ccc(NC(=O)Nc2cc(Cl)cc(Cl)c2)cc1)C(=O)N1CCCCC1C(=O)O (centres unmarked) [LR94]          26.8
7  CC(C)(Oc1ccc(NC(=O)Nc2cc(Cl)cc(Cl)c2)cc1)C(=O)NCC(=O)O [LR98]          26.7
8  CC(C)(Oc1ccc(Cl)cc1)C(=O)NC1(C(=O)O)CCCCC1 [LR93]            35

###

- study_system: hemoglobin (HbA1C formation) (Homo sapiens, UniProt P68871+P69905)
- Construct: δ-Glu, an oxidized analogue of glucose, can react rapidly with hemoglobin within the red cells; from tissue; host or cells: fresh whole blood (red blood cells) from normal volunteers
- Sequence (P68871 2-147 limits assumed): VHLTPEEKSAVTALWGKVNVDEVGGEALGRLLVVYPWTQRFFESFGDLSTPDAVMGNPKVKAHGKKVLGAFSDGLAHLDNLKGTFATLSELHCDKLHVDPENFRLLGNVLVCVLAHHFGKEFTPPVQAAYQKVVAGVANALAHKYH
- Sequence (P69905 2-142 limits assumed): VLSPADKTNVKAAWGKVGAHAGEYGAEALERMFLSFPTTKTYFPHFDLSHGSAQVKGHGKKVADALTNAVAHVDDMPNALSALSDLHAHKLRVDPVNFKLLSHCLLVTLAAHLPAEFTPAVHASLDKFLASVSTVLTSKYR
- assay_comment: Hemoglobin-δ-Gluconolactone (δ-Glu) assay, early stage glycation
- Format: biochemical
- condition_parameters: 1 millimole/L inhibitor, δ-Glu treated whole blood, 16 hours at 37° C.
attribute_measured: Percent Inhibition of HbA1c formation in the δ-Glu Assay (%)

> print(dat)
                                   molecule  result.value
1  CC(C)(Oc1ccc(NC(=O)Nc2cc(Cl)cc(Cl)c2)cc1)C(=O)Nc1ccc(C(=O)O)cc1          53.9
2  CC(C)(Oc1ccc(NC(=O)Nc2cc(Cl)cc(Cl)c2)cc1)C(=O)NCC(=O)O          42.8
3  CC(C)(Oc1ccc(NC(=O)Nc2cc(Cl)cc(Cl)c2)cc1)C(=O)NCCCC(=O)O          36.5
4  CC(C)C[C@H](NC(=O)C(C)(C)Oc1ccc(NC(=O)Nc2cc(Cl)cc(Cl)c2)cc1)C(=O)O          61.9
5  CC(C)(Oc1ccc(NC(=O)Nc2cc(Cl)cc(Cl)c2)cc1)C(=O)N1CCCCC1C(=O)O (stereo not drawn)          28.5
6  CC(C)(Oc1ccc(Cl)cc1)C(=O)NC1(C(=O)O)CCCCC1          49.2

(I) COC(=O)CC[C@H](NC(=O)C(C)(C)Oc1ccc(NC(=O)Nc2cc(Cl)cc(Cl)c2)cc1)C(=O)O
(II) N=C(N)NN [AG, aminoguanidine, reference compound]
stdin: Which value of Percent Inhibition of HbA1c formation in the δ-Glu Assay is greater, the one for I or the one for II ? In your reply, give the label of the chosen option.
stdout: I
(I: 57.1%, II: 12.1%)

###

Quick list: Percent Inhibition in the G.K.-Ribose Assay per entry.
- System: G.K. peptide
- assay_comment: N-Acetyl-Glycyl-Lysine Methyl Ester (G.K. Peptide)-Ribose assay
- Assay type: biochemical
- condition_parameters: 1 millimole/L inhibitor, 24 hours at 37° C., fluorescence 330/415 nm
Reply numerically in %, unit not repeated.

Worked examples follow.
> print(dat)
                                   molecule  unit.string  result.value
1  CC(C)(Oc1ccc(NC(=O)Nc2cc(Cl)cc(Cl)c2)cc1)C(=O)Nc1ccc(C(=O)O)cc1 [LR99]            %          39.5
2  CC(C)(Oc1ccc(NC(=O)Nc2cc(Cl)cc(Cl)c2)cc1)C(=O)NCC(=O)O [LR98]            %          37.3

stdin: Which measured Percent Inhibition in the G.K.-Ribose Assay value corresponds to CC(C)(Oc1ccc(NC(=O)Nc2cc(Cl)cc(Cl)c2)cc1)C(=O)NC1(C(=O)O)CCCC1 [LR100] ?
stdout: 28.5

stdin: Could you tell me which Percent Inhibition in the G.K.-Ribose Assay is on file for CC(C)(Oc1ccc(NC(=O)Nc2cc(Cl)cc(Cl)c2)cc1)C(=O)N1CCCCC1C(=O)O (centres unmarked) [LR94] ?
stdout: 33.7

stdin: Could you share which Percent Inhibition in the G.K.-Ribose Assay value was measured for CC(C)(Oc1ccc(Cl)cc1)C(=O)NC1(C(=O)O)CCCCC1 [LR93] ?
stdout: 42.8

stdin: # input molecule: CC(C)C[C@H](NC(=O)C(C)(C)Oc1ccc(NC(=O)Nc2cc(Cl)cc(Cl)c2)cc1)C(=O)O [LR95] ; wanted: its Percent Inhibition in the G.K.-Ribose Assay
stdout: 29.5

stdin: Which Percent Inhibition in the G.K.-Ribose Assay value belongs to CC(C)(Oc1ccc(NC(=O)Nc2cc(Cl)cc(Cl)c2)cc1)C(=O)NCCCC(=O)O [LR97] ?
stdout: 33.3

stdin: Query: Percent Inhibition in the G.K.-Ribose Assay; subject: COC(=O)CC[C@H](NC(=O)C(C)(C)Oc1ccc(NC(=O)Nc2cc(Cl)cc(Cl)c2)cc1)C(=O)O [LR96]
stdout: 42.4
